Target under test: T1R umami taste receptor (Homo sapiens, UniProt Q7RTX0+Q7RTX1)
Sequence (Q7RTX1 21-841): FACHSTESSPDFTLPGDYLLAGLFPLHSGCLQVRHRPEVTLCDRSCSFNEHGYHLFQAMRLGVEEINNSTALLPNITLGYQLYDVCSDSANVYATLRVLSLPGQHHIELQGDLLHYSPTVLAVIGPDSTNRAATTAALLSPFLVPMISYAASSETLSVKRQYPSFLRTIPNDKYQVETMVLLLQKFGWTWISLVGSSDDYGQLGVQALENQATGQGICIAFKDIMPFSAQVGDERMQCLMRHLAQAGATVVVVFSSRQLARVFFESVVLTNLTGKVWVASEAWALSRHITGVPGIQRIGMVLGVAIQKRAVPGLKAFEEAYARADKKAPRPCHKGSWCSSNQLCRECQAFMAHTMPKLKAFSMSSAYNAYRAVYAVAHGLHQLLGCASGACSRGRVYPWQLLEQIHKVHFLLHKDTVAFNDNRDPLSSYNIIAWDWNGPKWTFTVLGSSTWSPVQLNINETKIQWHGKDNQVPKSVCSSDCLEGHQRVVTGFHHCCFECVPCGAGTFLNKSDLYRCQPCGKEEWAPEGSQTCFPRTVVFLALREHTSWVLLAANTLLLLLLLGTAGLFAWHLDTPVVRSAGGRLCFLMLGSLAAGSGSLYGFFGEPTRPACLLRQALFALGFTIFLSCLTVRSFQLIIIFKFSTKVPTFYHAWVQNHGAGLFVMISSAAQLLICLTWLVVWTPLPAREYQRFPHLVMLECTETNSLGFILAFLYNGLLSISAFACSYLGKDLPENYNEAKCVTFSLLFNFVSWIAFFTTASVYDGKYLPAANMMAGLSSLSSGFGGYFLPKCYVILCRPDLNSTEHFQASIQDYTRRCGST
Sequence (Q7RTX0 21-852): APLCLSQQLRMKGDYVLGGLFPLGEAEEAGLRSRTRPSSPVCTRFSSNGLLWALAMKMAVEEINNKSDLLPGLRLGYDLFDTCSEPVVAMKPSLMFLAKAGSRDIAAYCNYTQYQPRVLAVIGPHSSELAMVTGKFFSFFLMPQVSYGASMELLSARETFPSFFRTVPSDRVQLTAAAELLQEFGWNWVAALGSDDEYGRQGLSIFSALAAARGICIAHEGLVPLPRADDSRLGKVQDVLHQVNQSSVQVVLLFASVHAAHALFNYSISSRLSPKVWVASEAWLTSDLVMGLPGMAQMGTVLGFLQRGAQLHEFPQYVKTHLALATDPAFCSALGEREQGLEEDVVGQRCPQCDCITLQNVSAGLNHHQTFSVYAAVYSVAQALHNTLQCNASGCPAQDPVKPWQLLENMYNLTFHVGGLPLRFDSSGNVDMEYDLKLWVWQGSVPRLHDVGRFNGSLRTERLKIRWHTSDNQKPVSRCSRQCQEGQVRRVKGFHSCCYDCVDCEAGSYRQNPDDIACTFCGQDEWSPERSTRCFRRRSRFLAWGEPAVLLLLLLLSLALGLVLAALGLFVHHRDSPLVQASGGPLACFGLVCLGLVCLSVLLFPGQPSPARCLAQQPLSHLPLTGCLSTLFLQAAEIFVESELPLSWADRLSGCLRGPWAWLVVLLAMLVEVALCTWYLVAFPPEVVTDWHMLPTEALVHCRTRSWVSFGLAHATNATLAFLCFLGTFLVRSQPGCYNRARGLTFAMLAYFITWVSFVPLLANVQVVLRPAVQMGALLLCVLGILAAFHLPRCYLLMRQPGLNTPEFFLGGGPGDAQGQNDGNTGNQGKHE
Assay details: in vitro cell-based assay having cells that express the T1R umami taste receptor (enhancement of MSG)
Applied conditions: cells expressing T1R umami taste receptor; read-out: EC50 for enhancement of MSG binding
Recorded EC50 by entry

molecule="CCOC(=O)C[C@H](NC(=O)/C=C/c1ccccc1)C(=O)OCC [Compound 138, Diethyl cinnamoyl-L-aspartate]" recorded_result="> 50 µM"
molecule=COC(=O)[C@H](Cc1ccccc1)NC(=O)c1ccc(OC)c(OC)c1 recorded_result="> 50 µM"

API: the following record is the query input.
// EC50 lookup, key: CCOC(=O)[C@@H](NC(=O)/C=C/c1ccc2c(c1)OCO2)C(C)C > 50 µM

====

Recorded EC50 by entry
Target under test: T1R umami taste receptor (Homo sapiens, UniProt Q7RTX0+Q7RTX1)
Assay details: in vitro cell-based assay having cells that express the T1R umami taste receptor (enhancement of MSG)
Applied conditions: cells expressing T1R umami taste receptor; read-out: EC50 for enhancement of MSG binding

Answered examples (3):
compound="COC(=O)[C@H](Cc1ccccc1)NC(=O)c1ccccn1 [Compound 112, Methyl picolinoyl-L-phenylalaninate]" target_under_test="T1R umami taste receptor (Homo sapiens, UniProt Q7RTX0+Q7RTX1)" recorded_result="> 50 µM"
compound="CCOC(=O)[C@@H](NC(=O)c1cccc(OC)c1)C(C)C [Compound 108, Ethyl (3-methoxybenzoyl)-L-valinate]" target_under_test="T1R umami taste receptor (Homo sapiens, UniProt Q7RTX0+Q7RTX1)" recorded_result="> 50 µM"
compound="CCOC(=O)[C@@H](CC(C)C)NC(=O)c1ccc(C)cc1 [Compound 102, Ethyl (4-methylbenzoyl)-D-leucinate]" target_under_test="T1R umami taste receptor (Homo sapiens, UniProt Q7RTX0+Q7RTX1)" recorded_result="< 2 µM"

API: the following record is the query input.
// EC50 lookup, key: COC(=O)[C@@H](CC(C)C)NC(=O)c1ccc(C)cc1 [Compound 101, Methyl (4-methylbenzoyl)-D-leucinate] < 2 µM

====

Target under test: T1R umami taste receptor (Homo sapiens, UniProt Q7RTX0+Q7RTX1)
Assay details: in vitro cell-based assay having cells that express the T1R umami taste receptor (enhancement of MSG)
Applied conditions: compound at 50 μM
Reported property: MSG Enh. Ratio

compound="C/C=C/C=C/C(=O)N[C@H](C(=O)OCC)[C@@H](C)CC [Compound 183]" target_under_test="T1R umami taste receptor (Homo sapiens, UniProt Q7RTX0+Q7RTX1)" recorded_result="2.8 @"

// MSG Enh. Ratio lookup, key: CCOC(=O)[C@H](CC(C)C)NC(=O)/C=C/c1ccccc1 [Compound 135, Ethyl cinnamoyl-L-leucinate] 5.3 @

Item: COC(=O)CC[C@H](NC(=O)/C=C/c1ccccc1)C(=O)OC [Compound 139, Dimethyl cinnamoyl-L-glutamate] 3.82 @

Item: C/C=C/C=C/C(=O)N[C@@H](CCC(=O)OCC)C(=O)OCC [Compound 182] 3.4 @

Item: CCOC(=O)CC[C@H](NC(=O)c1cc(OC)cc(OC)c1)C(=O)OCC [Compound 126] 5.2 @

Item: COC(=O)[C@H](Cc1ccccc1)NC(=O)c1cccc(OC)c1 [Compound 107] 3.2 @

Item: CCOC(=O)[C@@H](NC(=O)/C=C/c1ccc2c(c1)OCO2)[C@@H](C)CC [Compound 163] 2.4 @

Item: COC(=O)CC[C@H](NC(=O)/C=C/C(C)C)C(=O)OC [Compound 173] 3.1 @

Item: C/C=C/C=C/C(=O)N[C@@H](CC(C)C)C(=O)OCC [Compound 181] 4.5 @
